system: various mutants of kinase EGFR (BaF3 cell lines stably transfected with kinase) (Homo sapiens, UniProt P00533)
Construct: other: BaF3 cells stably transfected with EGFR Δ19Del; MTS, 48 h; other: BaF3 cell line stably transfected with EGFR Δ19Del
Sequence (P00533 with tags, fused parts or gaps DEL746-750): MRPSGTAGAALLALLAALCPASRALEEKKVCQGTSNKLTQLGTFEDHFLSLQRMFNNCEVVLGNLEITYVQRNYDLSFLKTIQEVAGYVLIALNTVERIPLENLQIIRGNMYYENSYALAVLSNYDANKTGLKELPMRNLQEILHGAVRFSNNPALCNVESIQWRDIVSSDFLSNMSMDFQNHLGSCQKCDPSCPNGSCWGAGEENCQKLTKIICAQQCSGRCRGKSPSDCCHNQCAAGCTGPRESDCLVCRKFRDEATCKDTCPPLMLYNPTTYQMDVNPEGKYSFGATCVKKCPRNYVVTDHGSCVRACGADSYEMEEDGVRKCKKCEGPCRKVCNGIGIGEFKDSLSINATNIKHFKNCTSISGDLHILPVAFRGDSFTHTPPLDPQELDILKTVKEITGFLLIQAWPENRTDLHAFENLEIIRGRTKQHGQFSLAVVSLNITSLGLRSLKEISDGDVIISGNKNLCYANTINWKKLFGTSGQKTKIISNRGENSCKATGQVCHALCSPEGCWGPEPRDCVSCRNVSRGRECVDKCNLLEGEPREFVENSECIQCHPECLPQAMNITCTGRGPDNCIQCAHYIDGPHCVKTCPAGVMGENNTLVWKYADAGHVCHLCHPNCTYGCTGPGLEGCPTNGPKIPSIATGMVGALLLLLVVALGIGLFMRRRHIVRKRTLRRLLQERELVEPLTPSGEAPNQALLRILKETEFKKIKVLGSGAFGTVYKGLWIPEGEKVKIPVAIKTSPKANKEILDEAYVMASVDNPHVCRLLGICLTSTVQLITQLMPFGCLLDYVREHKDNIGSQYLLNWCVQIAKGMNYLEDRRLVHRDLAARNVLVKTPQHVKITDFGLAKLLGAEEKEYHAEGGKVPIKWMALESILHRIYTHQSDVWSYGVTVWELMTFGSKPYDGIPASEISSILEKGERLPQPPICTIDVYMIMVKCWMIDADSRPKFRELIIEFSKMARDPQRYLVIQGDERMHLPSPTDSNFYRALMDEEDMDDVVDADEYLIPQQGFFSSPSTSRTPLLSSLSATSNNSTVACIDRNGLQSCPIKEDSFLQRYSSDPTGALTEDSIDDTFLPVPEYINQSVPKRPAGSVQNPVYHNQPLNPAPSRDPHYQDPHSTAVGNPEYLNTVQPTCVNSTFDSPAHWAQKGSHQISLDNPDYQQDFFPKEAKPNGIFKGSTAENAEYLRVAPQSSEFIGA
assay text: Growth inhibitory activity of compounds on BaF3 cell lines stably transfected with kinase (MTS, 48 h)
Assay type: cell-based
experimental parameters: BaF3 cell line stably transfected with EGFR Δ19Del, read-out: Δ19Del growth inhibitory activity IC50
Experimental: The activity of compounds against various mutants of kinase EGFR was evaluated by their effect of inhibiting growth of BaF3 cell lines stably transfected with kinase. The specific test method was given as follows: […] 3) Compound test: cells were incubated into a 96-well culture plate, the volume of cytosol was 90 µL, and then 10 µL of the compound at each gradient concentration was added. […] OD values at 490 nm were measured by a microplate reader (VARIOSKAN FLASH, Thermo). […]
pIC50: −log10 of the molar value.
measured parameter: pIC50

Form: compound = COc1cc(N2CCC(N3CCN(C)CC3)CC2)c(C)cc1Nc1nc(Nc2ccc3nccnc3c2N(C)S(C)(=O)=O)c2cc[nH]c2n1 ; pIC50 = 6.30 to 7.30

What the record says about CCc1cc(Nc2ncc(C(C)C)c(Nc3ccc4nccnc4c3N(C)S(C)(=O)=O)n2)c(OC)cc1N1CCC(N(C)C)C1 (stereo not shown) : pIC50 is 6.30 to 7.30

Notebook: CCc1cnc(Nc2cc(N3CCC(O)CC3)ccc2OC)nc1Nc1ccc2nccnc2c1N(C)S(C)(=O)=O , pIC50 read as ≥ 7.30

The value of pIC50 measured for the compound COc1cc(N2CCC(N3CCN(C)CC3)CC2)c(C2CC2)cc1Nc1nccc(Nc2ccc3nccnc3c2N(C)S(C)(=O)=O)n1 turned out to be 6.30 to 7.30

---

system: various mutants of kinase EGFR (BaF3 cell lines stably transfected with kinase) (Homo sapiens, UniProt P00533, T790M/C797S, form not given)
Construct: other: BaF3 cells stably transfected with EGFR Δ19Del/T790M/C797S; MTS, 48; other: BaF3 cell line stably transfected with EGFR Δ19Del/T790M/C7
Sequence (P00533 with tags, fused parts or gaps DEL746-750/T790M/C797S, form open): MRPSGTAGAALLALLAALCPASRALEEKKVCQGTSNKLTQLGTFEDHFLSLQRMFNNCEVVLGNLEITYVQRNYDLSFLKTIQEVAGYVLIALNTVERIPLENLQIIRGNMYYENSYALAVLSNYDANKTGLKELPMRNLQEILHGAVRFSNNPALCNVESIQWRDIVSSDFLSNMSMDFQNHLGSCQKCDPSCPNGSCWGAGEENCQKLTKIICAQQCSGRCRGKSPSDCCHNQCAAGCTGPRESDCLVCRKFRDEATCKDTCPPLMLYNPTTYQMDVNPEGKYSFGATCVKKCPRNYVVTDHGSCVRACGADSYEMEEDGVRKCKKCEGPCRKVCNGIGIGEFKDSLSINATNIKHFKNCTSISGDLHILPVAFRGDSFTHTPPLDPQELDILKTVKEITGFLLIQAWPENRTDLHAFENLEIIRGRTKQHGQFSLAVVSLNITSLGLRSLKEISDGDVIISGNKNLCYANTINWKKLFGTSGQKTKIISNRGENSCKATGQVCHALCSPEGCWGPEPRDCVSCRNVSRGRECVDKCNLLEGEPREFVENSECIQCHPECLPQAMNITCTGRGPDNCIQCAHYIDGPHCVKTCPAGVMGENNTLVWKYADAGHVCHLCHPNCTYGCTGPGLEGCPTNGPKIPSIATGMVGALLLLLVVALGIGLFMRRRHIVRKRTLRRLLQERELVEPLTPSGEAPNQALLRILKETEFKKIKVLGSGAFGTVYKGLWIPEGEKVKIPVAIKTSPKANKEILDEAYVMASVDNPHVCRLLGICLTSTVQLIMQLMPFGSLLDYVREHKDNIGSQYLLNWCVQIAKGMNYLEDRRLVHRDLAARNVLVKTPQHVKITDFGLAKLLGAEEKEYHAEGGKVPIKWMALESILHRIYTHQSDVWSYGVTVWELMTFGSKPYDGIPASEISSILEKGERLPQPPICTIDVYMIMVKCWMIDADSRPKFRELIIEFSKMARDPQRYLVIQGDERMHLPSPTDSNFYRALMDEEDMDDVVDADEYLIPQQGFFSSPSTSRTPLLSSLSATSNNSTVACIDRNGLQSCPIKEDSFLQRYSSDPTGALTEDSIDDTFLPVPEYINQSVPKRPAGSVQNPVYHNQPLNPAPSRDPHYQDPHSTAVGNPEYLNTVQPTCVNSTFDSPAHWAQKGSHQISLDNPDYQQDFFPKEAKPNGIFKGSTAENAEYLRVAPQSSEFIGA
assay text: Growth inhibitory activity of compounds on BaF3 cell lines stably transfected with kinase (MTS, 48 h)
Assay type: cell-based
experimental parameters: BaF3 cells stably transfected with EGFR Δ19Del/T790M/C797S, read-out: IC50, growth inhibition, Δ19Del/T790M/C797S
Please go through the items and note down their IC50.

Lab book: IC50 of COc1ccc(N2CCC(O)CC2)cc1Nc1ncc(Br)c(Nc2ccc3nccnc3c2N(C)S(C)(=O)=O)n1 noted as ≤ 50 nM

Recorded IC50 (molecule CCc1cc(Nc2ncc(Br)c(Nc3ccc4nccnc4c3N(C)S(=O)(=O)C(F)(F)F)n2)c(OC)cc1N1CCN(C)CC1 ): ≤ 50 nM

So for Cc1cc2c(cc1Nc1ncc(Br)c(Nc3ccc4nccnc4c3N(C)S(C)(=O)=O)n1)CN(C)CC2 , the logged IC50 turned out to be 50 to 500 nM

Reported IC50 for CCc1cc(Nc2ncc(F)c(Nc3ccc4nccnc4c3N(C)S(=O)(=O)C3CC3)n2)c(OC(F)(F)F)cc1N1CCC(N2CCN(C)CC2)CC1 was 50 to 500 nM

---

For each of the compounds below, state its IC50.
system: various mutants of kinase EGFR (BaF3 cell lines stably transfected with kinase) (Homo sapiens, UniProt P00533, T790M/C797S, form not given)
Construct: other: BaF3 cells stably transfected with EGFR Δ19Del/T790M/C797S; MTS, 48; other: BaF3 cell line stably transfected with EGFR Δ19Del/T790M/C7
assay text: Growth inhibitory activity of compounds on BaF3 cell lines stably transfected with kinase (MTS, 48 h)
Format: cell-based
experimental parameters: BaF3 cells stably transfected with EGFR Δ19Del/T790M/C797S, read-out: IC50, growth inhibition, Δ19Del/T790M/C797S

So for CCc1cc(Nc2ncc(Cl)c(Nc3ccc4nccnc4c3N(CC)S(C)(=O)=O)n2)c(OC)cc1N1CCC(N2CCN(C)CC2)CC1 [Compound I-110] , the logged IC50 turned out to be ≤ 0.05 µM

Lab note: measured IC50 of CCc1cc(Nc2ncc(Br)c(Nc3ccc4nccnc4c3N(C3CC3)S(C)(=O)=O)n2)c(OC)cc1N1CCC(N(C)C)CC1 [Compound I-157] was ≤ 0.05 µM

// IC50 value for CCc1cc(Nc2ncc(F)c(Nc3ccc4nccnc4c3N(C)S(C)(=O)=O)n2)c(OC)cc1N1CCC(N2CCN(C)CC2)CC1 [Compound I-26] : ≤ 0.05 µM

# compound CN1CCc2cc(OC(F)(F)F)c(Nc3ncc(Br)c(Nc4ccc5nccnc5c4N(C)S(C)(=O)=O)n3)cc2C1 [Compound I-90] ; its IC50 = 0.5 to 2.5 µM

Kindly note the recorded IC50 for CCc1cc(Nc2ncc(Cl)c(Nc3ccc4nccnc4c3N(C)S(=O)(=O)C3CC3)n2)c(OC)cc1N1CCC(N(C)C)CC1 [Compound I-122] , which is ≤ 0.05 µM

Item: COc1cc(N2CCC(N(C)C)C2)c(C)cc1Nc1ncc(Cl)c(Nc2ccc3nccnc3c2N(C2CC2)S(C)(=O)=O)n1 (stereo not shown) [Compound I-246] | IC50: ≤ 0.05 µM

For record CCS(=O)(=O)N(C)c1c(Nc2nc(Nc3cc(C)c(N4CCC(N5CCN(C)CC5)CC4)cc3OC)ncc2Br)ccc2nccnc12 [Compound I-99] the listed IC50 is ≤ 0.05 µM

// field: IC50; key: CCN(c1c(Nc2nc(Nc3cc(C)c(N4CCC(N(C)C)C4)cc3OC)ncc2Br)ccc2nccnc12)S(C)(=O)=O (stereo not shown) [Compound I-302] ; value = 0.05 to 0.5 µM

Record CCc1cc(Nc2ncc(C(F)(F)F)c(Nc3ccc4nccnc4c3N(C)S(C)(=O)=O)n2)c(OC(F)(F)F)cc1N1CCC(N2CCN(C)CC2)CC1 [Compound I-201] . Reported IC50: ≤ 0.05 µM

In plain terms, CCc1cc(Nc2ncc(Cl)c(Nc3ccc4nccnc4c3N(C)S(C)(=O)=O)n2)c(OC)cc1N1CCC(N(C)C)CC1 [Compound I-170] has a documented IC50 of ≤ 0.05 µM

get_value(item= CCc1cc(Nc2ncc(C3CC3)c(Nc3ccc4nccnc4c3N(C)S(C)(=O)=O)n2)c(OC)nc1N1CCC(N2CCN(C)CC2)CC1 [Compound I-270] , readout=IC50) returns ≤ 0.05 µM

# compound CCN(c1c(Nc2nc(Nc3cc(C)c(N4CCC(N(C)C)CC4)cc3OC)ncc2Cl)ccc2nccnc12)S(C)(=O)=O [Compound I-230] ; its IC50 = ≤ 0.05 µM

Value of IC50 reported for the compound CCc1cc(Nc2ncc(Cl)c(Nc3ccc4nccnc4c3N(CC)S(C)(=O)=O)n2)c(OC)nc1N1CCC(N2CCN(C)CC2)CC1 [Compound I-227] is ≤ 0.05 µM
